The reported numbers originate from patent US20220056111A1.

Target: T1, HcoV-229E S protein (HcoV-229E, UniProt P15423 16-1115)
T1 sequence: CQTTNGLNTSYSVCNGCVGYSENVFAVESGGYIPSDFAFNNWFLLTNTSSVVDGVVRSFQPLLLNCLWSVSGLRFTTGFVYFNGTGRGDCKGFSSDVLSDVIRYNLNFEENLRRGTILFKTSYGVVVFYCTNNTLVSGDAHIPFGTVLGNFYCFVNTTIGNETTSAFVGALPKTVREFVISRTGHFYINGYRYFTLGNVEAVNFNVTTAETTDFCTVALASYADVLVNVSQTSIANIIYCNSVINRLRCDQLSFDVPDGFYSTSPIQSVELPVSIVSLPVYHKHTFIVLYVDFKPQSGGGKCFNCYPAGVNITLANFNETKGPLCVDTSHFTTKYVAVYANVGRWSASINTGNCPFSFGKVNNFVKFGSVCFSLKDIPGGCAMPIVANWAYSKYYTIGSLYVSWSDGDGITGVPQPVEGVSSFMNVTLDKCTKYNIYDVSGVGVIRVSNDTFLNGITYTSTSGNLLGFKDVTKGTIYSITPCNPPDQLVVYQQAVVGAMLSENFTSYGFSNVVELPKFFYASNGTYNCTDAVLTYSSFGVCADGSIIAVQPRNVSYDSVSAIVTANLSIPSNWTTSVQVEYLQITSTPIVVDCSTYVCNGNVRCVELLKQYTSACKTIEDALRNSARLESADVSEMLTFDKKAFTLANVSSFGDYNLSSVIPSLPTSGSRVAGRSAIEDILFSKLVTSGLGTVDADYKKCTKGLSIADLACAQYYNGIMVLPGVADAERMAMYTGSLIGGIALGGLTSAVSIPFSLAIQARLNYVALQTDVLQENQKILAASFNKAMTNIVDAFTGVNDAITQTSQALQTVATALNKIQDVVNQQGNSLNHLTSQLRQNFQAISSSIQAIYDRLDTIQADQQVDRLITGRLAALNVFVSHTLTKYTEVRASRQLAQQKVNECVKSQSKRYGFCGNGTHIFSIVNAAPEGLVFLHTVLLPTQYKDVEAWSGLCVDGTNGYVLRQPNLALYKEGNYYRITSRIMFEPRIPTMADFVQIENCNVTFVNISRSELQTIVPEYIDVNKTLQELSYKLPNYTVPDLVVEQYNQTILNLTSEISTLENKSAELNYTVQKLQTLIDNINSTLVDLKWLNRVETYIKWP
Experiment: direct ELISA, OD450
measure: binding result

• rabbit monoclonal antibody 9A5 against the SARS-CoV-2 S1 (antibody, V domains shown) VH: QSVEESGGRLVTPGTPLTLTCTVSGFSLSAYQMIWVRQTPGKGLEYIGIMHTGTSAYYANWAKGRFTISKTSSTTVDLKMTSPTTEDTATYFCGRNLNEGFTGAYPFNLWGPGTLVAVSS VL: DVVMTQTPASVEAAVGGTVTIKCQASQSIGSNLAWYQKKPGQPPKLLIYQASNLASGVPSRFKGSGSGTQFTLTISDLECADAATYYCQMNYYISSSYTYTFGGGTEVVVKG = no binding
• rabbit monoclonal antibody 1H1 against the SARS-CoV-2 S1 (antibody, V domains shown) VH: QSLEESGGDLVKPGASLTLTCTASGFSFSSGYDMCWVRQAPGKGLEWIACIGTGSSGNIYYASWAKGRFTISKTSSTTVTLQMTSLTAADTATYFCARDDADYAGPDYFNLWGPGTLVTVSS VL: DIVMTQTPASVSEPVGGTVTIKCQASESISNWLAWYQQKPGQPPKLLIYAAFTLASGVPSRFKGSGSGTQFTLTINGVECADAATYYCQQTYSSRDVDNVFGGGTEVVVKG = no binding
• rabbit monoclonal antibody 9H1 against the SARS-CoV-2 S1 (antibody, V domains shown) VH: QSVEESGGRLVTPGTPLTLTCTVSGFSLSRYAMSWVRQAPGKGLEWIGIIVDSGHTAYASWAKGRFTISRTSTTVDLKMTSLTTEDTATYFCARETGGGAFYVFEFWGPGTVVTVSS VL: AQVLTQTPSSVSAAVGGTVTINCQASEDIYDNLVWYQQKPGQPPKLLIYDASTLAFGVSSRFRGSGSGTHFTLTMRDVQCDDAATYYCQGEFSCSSGDCTAFGGGTEVVVKG = no binding
